System: carbapenem-resistant K. pneumoniae strain (ATCC BAA-1705)
Assay type: cell-based, Klebsiella pneumoniae
Conditions: CLSI protocol in CA-MHB; ATCC BAA-1705
Protocol: Klebsiella pneumoniae ATCC BAA-1705 was purchased from the American Type Culture Collection (Manassas, VA) and grown in Cation-Adjusted Mueller Hinton Broth. Bacteria were aliquoted and frozen at −80° C. with 20% glycerol and enumerated via serial dilution and plating prior to experimentation. The minimum inhibitory concentration (MIC) of the peptides was determined according to Clinical & Laboratory Standards Institute (CLSJ) guidelines. […]
measured.property: MIC (μM) (µM)
Write it as a number; the unit µM goes unstated.

If you can, please state the reported MIC (μM) value of Ac-FRWRRFFRKAKRFLKRHGVSIAIGTVRLLRRFG-NH2 [DRGN-5] .
7.7
